Test: AUC (0 to infinity) in Sprague-Dawley rat at 10 mg/kg, po
Assay type: ADME, organism-based
Design: time infinity, dose 10 mg/kg, route oral
Details: plasma
measure: AUC(0-inf) (ng·h/mL)
Unit ng·h/mL implied. Number only.

Fill blank: measured AUC(0-inf) of the compound Cl.Clc1cccc(Nc2nc(Cc3ccccc3)nc3c2CCNCC3)c1 is ____.
1050

====

Target: 5-hydroxytryptamine receptor 2C (Homo sapiens)
Sequence (P28335 whole entry): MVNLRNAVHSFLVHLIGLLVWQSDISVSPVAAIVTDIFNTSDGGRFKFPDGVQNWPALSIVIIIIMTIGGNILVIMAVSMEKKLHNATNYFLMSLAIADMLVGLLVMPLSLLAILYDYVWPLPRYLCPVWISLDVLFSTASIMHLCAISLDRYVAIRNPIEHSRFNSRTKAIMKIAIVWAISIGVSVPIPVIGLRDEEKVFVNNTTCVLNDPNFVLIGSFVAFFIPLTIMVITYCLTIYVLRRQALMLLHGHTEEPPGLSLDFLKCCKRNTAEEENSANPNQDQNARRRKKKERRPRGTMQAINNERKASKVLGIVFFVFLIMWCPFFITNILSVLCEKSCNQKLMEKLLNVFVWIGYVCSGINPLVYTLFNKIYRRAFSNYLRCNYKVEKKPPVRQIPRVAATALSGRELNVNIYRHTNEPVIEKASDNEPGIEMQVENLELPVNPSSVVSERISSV
Test: Displacement of [3H]-mesulergine from human recombinant 5HT-2C receptor expressed in CHOK1 cell membranes after 30 mins
Set-up: species or system CHO-K1
measure: log10 of IC50 (log10 of the value in nM)
Short version: log10 scale, IC50, nM.

CCN(CC)c1nc(Nc2ccc(Cl)cc2)c2cn[nH]c2n1 = 3.00
Fc1ccc(Nc2nc(N3CCOCC3)nc3[nH]ncc23)cc1 = 3.32
COc1cccc(Nc2nc(Cc3ccccc3)nc3c2CCNCC3)c1 = 1.57
CN1CCN(c2nc3c(c(Nc4ccc(F)cc4)n2)CCNCC3)CC1 = 2.53
CCN(CC)c1nc(Nc2ccccc2C)c2cn[nH]c2n1 = 2.38

Fill blank: measured log10 of IC50 of the compound CN1CCc2nc(N3CCN(C)CC3)nc(Nc3ccc(F)cc3)c2CC1 is ____.
2.89

Again, but for c1ccc(Cc2nc3c(c(N4CCSCC4)n2)CCNCC3)cc1
2.52

Again, but for CCN(CC)c1nc(Nc2ccc(F)cc2)c2cn[nH]c2n1
3.52

Again, but for CN1CCN(c2nc3c(c(OCc4ccco4)n2)CCNCC3)CC1
3.10

Again, but for Fc1ccc(Nc2nc(N3CCN(c4ccc(F)cc4)CC3)nc3[nH]ncc23)cc1
2.17

Again, but for Fc1ccc(Nc2nc(NC3CCCCC3)nc3[nH]ncc23)cc1
3.76

Again, but for Fc1ccc(Nc2nc(N3CCN(c4ccccc4)CC3)nc3[nH]ncc23)cc1
2.62

Again, but for OCCN1CCN(c2nc(Nc3ccc(F)cc3)c3cn[nH]c3n2)CC1
2.69

====

Assay: Mean residence time in Sprague-Dawley rat at 10 mg/kg, iv
Type: ADME, organism-based
Design: dose 10 mg/kg, route intravenous
Details: in vivo
measure: MRT (h)
Unit h implied. Number only.

Fill blank: measured MRT of the molecule Cl.Clc1cccc(Nc2nc(Cc3ccccc3)nc3c2CCNCC3)c1 is ____.
1.88

====

Target: 5-hydroxytryptamine receptor 1A (Homo sapiens)
Sequence (P08908 whole entry): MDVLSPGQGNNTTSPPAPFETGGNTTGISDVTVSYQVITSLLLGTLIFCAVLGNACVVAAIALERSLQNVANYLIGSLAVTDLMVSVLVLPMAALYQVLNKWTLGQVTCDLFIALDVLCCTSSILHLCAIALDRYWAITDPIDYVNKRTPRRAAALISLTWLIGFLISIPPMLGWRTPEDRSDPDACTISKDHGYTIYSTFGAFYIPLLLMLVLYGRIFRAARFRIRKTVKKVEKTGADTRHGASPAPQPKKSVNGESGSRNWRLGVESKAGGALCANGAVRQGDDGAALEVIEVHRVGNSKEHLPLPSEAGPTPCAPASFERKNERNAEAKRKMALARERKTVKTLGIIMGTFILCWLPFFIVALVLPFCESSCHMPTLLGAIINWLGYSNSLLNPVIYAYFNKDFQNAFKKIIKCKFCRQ
Experiment: Displacement from [3H]8-OH-DPAT from human recombinant 5HT-1A receptor expressed in HEK293 cells after 120 mins
As shown below, each of these molecules has a reported IC50 value.
Unit µM implied. Number only.

Some molecules with known IC50 results, for comparison:
Cl.Clc1cccc(Nc2nc(Cc3ccccc3)nc3c2CCNCC3)c1 = 1.06
c1ccc(Cc2nc3c(c(Nc4ccccc4)n2)CCNCC3)cc1 = 0.395
Fc1cccc(Nc2nc(Cc3ccccc3)nc3c2CCNCC3)c1 = 1.25

Fill blank: measured IC50 of the molecule COc1cccc(Nc2nc(Cc3ccccc3)nc3c2CCNCC3)c1 is ____.
0.823

====

Biological target: 5-hydroxytryptamine receptor 2C (Homo sapiens)
Assay: Displacement of [3H]-mesulergine from human recombinant 5HT-2C receptor expressed in CHOK1 cell membranes at 10 uM after 30 mins relative to control
Conditions: CHO-K1
measure: inhibition
Kindly write the number and append the unit.

CC1CCN(c2nc(Nc3ccc(F)cc3)c3cn[nH]c3n2)CC1 = 86%
CNc1nc(Nc2ccc(F)cc2)c2cn[nH]c2n1 = 51%
CN1CCN(c2nc(Nc3ccc(Cl)cc3)c3cn[nH]c3n2)CC1 = 100%
COc1cccc(Nc2nc(N3CCN(C)CC3)nc3[nH]ncc23)c1 = 100%
Fc1ccc(Nc2nc(N3CCN(c4ccccc4)CC3)nc3[nH]ncc23)cc1 = 88%
CCN(CC)c1nc(Nc2ccc(F)cc2)c2cn[nH]c2n1 = 76%
OCCN1CCN(c2nc(Nc3ccc(F)cc3)c3cn[nH]c3n2)CC1 = 97%
COc1ccccc1N1CCN(c2nc(Nc3ccc(F)cc3)c3cn[nH]c3n2)CC1 = 78%

Fill blank: measured inhibition of the molecule CCN(CC)c1nc(Nc2ccccc2C)c2cn[nH]c2n1 is ____.
88%

Again, but for CN(C)c1nc(Nc2ccc(F)cc2)c2cn[nH]c2n1
66%

Again, but for Cc1ccc(CNc2nc(Nc3ccc(F)cc3)c3cn[nH]c3n2)cc1
66%
